pKi: −log10 of the molar value.
Form: system (Substance-P receptor (Homo sapiens)), quantity (pKi), values below.
property-measured: pKi

The examples below pair each entry with its known result.
CN1C(=O)N(Cc2cc(C(F)(F)F)cc(C(F)(F)F)c2)C2(CCN(C(=O)CN3CCC(Cc4ccccc4)CC3)CC2)C1=O 5.43
CN1C(=O)N(Cc2cc(C(F)(F)F)cc(C(F)(F)F)c2)C2(CCN(C(=O)c3cccc4ccccc34)CC2)C1=O 6.34
O=C1NC2(CCN(S(=O)(=O)CCc3cccc4ccccc34)CC2)C(=O)N1Cc1cc(C(F)(F)F)cc(C(F)(F)F)c1 7.13

A. CN1C(=O)N(Cc2cc(C(F)(F)F)cc(C(F)(F)F)c2)C2(CCN(C(=O)c3c(Cl)cccc3Cl)CC2)C1=O
B. CSc1ccc(N2C(=O)NC3(CCN(C(=O)c4cc(C(F)(F)F)cc(C(F)(F)F)c4)CC3)C2=O)cc1
Higher pKi between A and B ? Give the label of your selection.
B
(B: 6.88, A: 6.19)

src = ChEMBL document CHEMBL1135316
